Please provide measured melting point for the entries that follow.

Query: Form field: reported melting point of O=C1c2ccccc2C(O)(c2ccc(Cl)cc2)N1CCc1ccc([N+](=O)[O-])cc1 (stereo not given)
Reply: 206 to 208 °C

Query: Form field: reported melting point of O=C(Nc1ccccn1)c1nc(-c2ccccc2)c2ccccc2c1O
Reply: 228 to 230 °C

Query: Form field: reported melting point of CCCCOc1ccc(S(=O)(=O)N2CC(NCC(O)c3ccc(O)c(NS(C)(=O)=O)c3)C2)cc1 (stereo not given)
Reply: 67 to 70 °C

Query: Form field: reported melting point of COc1ccc(C(=C/C=C/C(=O)O)c2ccc(OC)cc2)cc1
Reply: 187 to 189 °C

Query: Form field: reported melting point of O=C1C(CCO)Oc2ccccc2N1Cc1cccc(Cl)c1 (stereo not given)
Reply: 63 to 67 °C

Query: Form field: reported melting point of COC(=O)[C@H](c1ccccc1Cl)N1CCc2sc(OC(=O)COc3ccccc3)cc2C1
Reply: 104 to 106 °C

Query: Form field: reported melting point of COC(=O)C(C)OC(=O)c1cc(-n2c(=O)cc(C(F)(F)F)n(C)c2=O)c(F)cc1Cl (stereo not given)
Reply: 102 to 104 °C

Query: Form field: reported melting point of COC(=O)c1ccc(OC)c(C=C2COc3ccc(OCc4ccccc4)cc3C2=O)c1
Reply: 167 to 169 °C

Query: Form field: reported melting point of FC(F)(F)CNC(=S)NCc1ccc(C(F)(F)F)cc1
Reply: 80 to 82 °C

Query: Form field: reported melting point of CC1(C)CC(=O)Oc2ccc(O)cc21
Reply: 95 to 96 °C

Query: Form field: reported melting point of COc1ccc(C(=O)c2ccc(Br)s2)cc1
Reply: 97 to 99 °C

Query: Form field: reported melting point of OCCc1nnc(S)s1
Reply: 101 to 103 °C

Query: Form field: reported melting point of COC(=O)Cc1c(Cl)cc(C(=O)c2ccc(C)cc2)n1C
Reply: 144 to 146 °C

Query: Form field: reported melting point of CC(=O)NC(C)COC1CCC(c2nc3ccc(OCC4CC4)cc3o2)CC1 (stereo not given)
Reply: 131 to 132 °C

Query: Form field: reported melting point of CC1(C(=O)O)CCC2(C)CCC3(C)C(=CCC4C5(C)CCC(O)C(C)(C)C5CCC43C)C2C1 (stereo not given)
Reply: 329 to 331 °C

Query: Form field: reported melting point of Cc1ccc(S(=O)(=O)OCC2Cc3cc(Cl)cc(-c4ccccc4)c3O2)cc1 (stereo not given)
Reply: 127 to 130 °C

Query: Form field: reported melting point of O=C1CCC(=O)N1Cc1nc2sc3c(c2c(-c2ccc(O)cc2)c1Cl)CCNC3
Reply: 286 to 287 °C

Query: Form field: reported melting point of CS(=O)(=O)Nc1ccc(NC(=O)CN2CCC(Cc3ccccc3)CC2)cc1
Reply: 102 to 106 °C

Query: Form field: reported melting point of CCOC(=O)C(C)Oc1ccc(N(C)c2nc(Cl)c3cc(Cl)ccc3n2)cc1 (stereo not given)
Reply: > 250 °C

Query: Form field: reported melting point of O=C(Nc1ccc(N2CCN(C(C(=O)NCC(F)(F)F)c3ccccc3)CC2)cc1)c1ccccc1-c1ccc(C(F)(F)F)cc1 (stereo not given)
Reply: 208 °C

---

Please provide measured melting point for the entries that follow.

Query: Form field: reported melting point of COc1ccc(COc2c(C)c(C)c3c(c2C)C(c2ccc(N4CCOCC4)cc2)C(C)(C)O3)cc1 (stereo unspecified)
Reply: 110 to 112 °C

Query: Form field: reported melting point of O=c1[nH]c2cc(Cl)ccc2n(O)c1=O
Reply: > 300 °C

Query: Form field: reported melting point of O=C(O)c1ccccc1Sc1ccccc1[N+](=O)[O-]
Reply: 169 to 171 °C

Query: Form field: reported melting point of Cc1ccc(-c2nc3c(o2)C(=O)c2ccccc2C3=O)cc1
Reply: > 260 °C

Query: Form field: reported melting point of O=C(NC(Cc1ccc(OCc2ccccc2)cc1)c1noc(=O)[nH]1)c1cn2cc(-c3ccc(Cl)cc3)ccc2n1 (stereo unspecified)
Reply: 167 °C

Query: Form field: reported melting point of CC1CCN(c2ccc(Nc3ncc4c(n3)SCC(=O)N4)cc2)CC1
Reply: 278 to 280 °C

Query: Form field: reported melting point of NC(=O)COCC(N)=S
Reply: 164 to 168 °C

Query: Form field: reported melting point of O=Cc1c(O)ccc2cccnc12
Reply: 127 to 130 °C

Query: Form field: reported melting point of Cc1cc(-c2c(-c3ccc(F)cc3)nn3cccnc23)ccn1
Reply: 164 to 166 °C

Query: Form field: reported melting point of c1ccc(CN2CCN(c3nc4cccc5c4n3CCC5)CC2)cc1
Reply: 157 to 158 °C

Query: Form field: reported melting point of CSc1ccc(N2CCOC2=O)cc1[N+](=O)[O-]
Reply: 180 °C

Query: Form field: reported melting point of CN(NC1=CC(=O)NCC1)c1ccccc1
Reply: 180 to 182 °C

Query: Form field: reported melting point of O=C1COc2cc(F)c(NC(=O)c3ccccc3[N+](=O)[O-])cc2N1
Reply: > 248 °C

Query: Form field: reported melting point of CC(C)c1nc2cc(COc3ccc(CC4SC(=O)NC4=O)cc3)ccc2o1 (stereo unspecified)
Reply: 128 to 131 °C

Query: Form field: reported melting point of CC(C)Oc1cccc(-n2c(NC(=O)Nc3ccc(Br)cc3)nc3ccccc3c2=O)c1
Reply: 230 to 233 °C

Query: Form field: reported melting point of CCOC(=O)C1=C(c2ccc(-n3nc(C)nc3C)cc2)NC(C)=C(C(=O)Nc2ccccn2)C1c1ccccc1Cl (stereo unspecified)
Reply: 130 °C

Query: Form field: reported melting point of O=C(O)c1cccc(=O)n1OCc1ccccc1
Reply: 176 to 177 °C

Query: Form field: reported melting point of COC=C(C(=O)OC)c1ccccc1
Reply: 37 to 38 °C

Query: Form field: reported melting point of COc1ccc2c(c1)C13CCN(C#N)C(C2)C1CCC(=O)C3 (stereo unspecified)
Reply: 211 to 214 °C

Query: Form field: reported melting point of O=c1cc2c(nn1-c1ccc(Cl)cc1)-c1ncccc1CC2
Reply: 174 to 176 °C

Query: Form field: reported melting point of OCc1c(CO)c(-c2ccc(Cl)cc2)n2c1Cc1ccccc1C2
Reply: 170 to 171 °C

---

Property: melting point (°C)
Reply numerically in °C, unit not repeated.

Query: Form field: reported melting point of CC#CCOc1ccc(S(=O)(=O)C(C(=O)O)C2CCN(C(=O)c3ccccc3)CC2)cc1 (stereo not given)
Reply: 90

Query: Form field: reported melting point of CCCN(c1nc(-c2ccc(OC)cc2Cl)c(C)s1)c1cc([N+](=O)[O-])ccc1OC
Reply: 97

---

Please provide measured melting point for the entries that follow.

Query: Form field: reported melting point of Cc1[nH]c2ccc(OCCCCBr)cc2c1C
Reply: 119 to 120 °C

Query: Form field: reported melting point of Cc1ccnc(-c2cccc(Br)n2)n1
Reply: 127 °C

Query: Form field: reported melting point of CC(=O)Nc1ncc(Sc2nnnn2C)s1
Reply: 208 to 210 °C

Query: Form field: reported melting point of Cc1[nH]cnc1CSCCN=C(N)N
Reply: 141 to 142 °C

Query: Form field: reported melting point of CSc1nc(-n2cnc([N+](=O)[O-])n2)c2cc(Br)ccc2n1
Reply: 204 °C

Query: Form field: reported melting point of COc1ccc(-c2nnc3c4ccccc4c(OCCO)nn23)cc1
Reply: 252 to 254 °C

Query: Form field: reported melting point of COc1ccc([N+](=O)[O-])nc1C
Reply: 96 to 98 °C

Query: Form field: reported melting point of CN(C)CCOc1ccc2ccc(N)nc2n1
Reply: 105 °C

Query: Form field: reported melting point of CC(=O)C1CCc2c([nH]c3ccc(Cl)cc23)C1 (configuration not stated)
Reply: 159 to 161 °C

Query: Form field: reported melting point of N#Cc1c(N2CCCN(c3cccc(C(F)(F)F)c3)CC2)cc[nH]c1=S
Reply: 247 to 248 °C

Query: Form field: reported melting point of CCCCCCCNC(=O)c1cnc2cccc(C)n2c1=O
Reply: 118 to 120 °C

Query: Form field: reported melting point of CNc1ccc(-c2cc[nH]n2)cc1
Reply: 78 to 86 °C

---

Please provide measured melting point for the entries that follow.

Query: Form field: reported melting point of CC(C)(C)C(=O)Nc1ccc(-c2ccncc2)cc1
Reply: 274 to 279 °C

Query: Form field: reported melting point of COc1ccc(S(=O)(=O)N2C(=O)C(O[Si](C)(C)C)(c3ccccc3Cl)c3cc(Cl)c(OC)cc32)c(OC)c1 (stereo not given)
Reply: 217 to 219 °C

Query: Form field: reported melting point of c1ccc(OCc2ccc3ccccc3n2)cc1
Reply: 79.5 to 80.5 °C

Query: Form field: reported melting point of CCC1(c2cc(NC(=O)c3c(OC)cccc3OC)no2)CCCCC1
Reply: 179 to 181 °C

Query: Form field: reported melting point of O=C1Nc2c(Cl)cccc2C12COc1cc3c(cc12)CCO3 (stereo not given)
Reply: > 250 °C

Query: Form field: reported melting point of Cc1nc(-c2cc(Cc3ccccc3)no2)sc1C(=O)NCc1ccccc1
Reply: 103 to 104 °C

Query: Form field: reported melting point of O=C1NC(=O)C(CC(=O)N2CCN(c3cccc(CNC(=O)c4nc5ccccc5c(=O)[nH]4)c3)CC2)N1 (stereo not given)
Reply: 280 to 282 °C

Query: Form field: reported melting point of CCOC(=O)Oc1ccc(/C=C(\C)c2ccc3c(c2)SC(C)(C)S3)cc1
Reply: 93 to 94 °C

Query: Form field: reported melting point of CSCCC1(C)CCc2c(C)c(O)c(C)c(C)c2O1 (stereo not given)
Reply: 66.5 to 67 °C

Query: Form field: reported melting point of CC12CCC(=O)C(N=[N+]=[N-])=C1CCC1C2CCC2(C)C(OC3CC3)CCC12 (stereo not given)
Reply: 104 to 106 °C
